test system: NCI-H460 lung; assay: NCI-60 one-dose screen, 48 h (100 = growth as untreated, 0 = no growth, -100 = all killed); settings: 10 µM unless noted
This is part of a sample that, as a whole, favours compounds with a hit. Of some 83,000 tested, about 20% had one in any assay.
Measured growth values are reported for all entries that follow.
quantity: growth (%)

INSERT INTO measurements (molecule, u, recorded_value) VALUES
  ('CCOC(=O)CC/C(C)=N\Nc1ccc([N+](=O)[O-])cc1', '%', 27.1),
  ('O=C(Cc1n[nH]c(=O)c2ccccc12)OCc1c(Cl)cccc1Cl', '%', 26.3),
  ('CN(C)c1ccc(C2CC(c3ccccc3)=NN2/C=C2\SC(=O)NC2=O)cc1 (centres undefined)', '%', 67.2),
  ('COc1cccc(NC(=O)c2sc3nc4c(cc3c2N)CCCC4)c1', '%', 12),
  ('COc1ccc(C2CC(c3cccs3)=NN2c2ccc(S(=O)(=O)NC(=O)NCc3cccc(OC)c3)cc2)cc1 (centres undefined)', '%', 109),
  ('Cn1c(-c2nonc2NC(=O)c2ccc(F)cc2)nc2ccccc21', '%', 101),
  ('O=C1N=C(c2c(-c3[nH]c(=O)c4ccc(Br)cc4c3O)c(O)c3ccccc3c2O)C(=O)c2cc(Br)ccc21', '%', -80.9),
  ('COc1ccc(-c2nc(-c3ccccc3)c(-c3ccccc3)n2C2CC2)cc1OC1CCCCC1', '%', 30.9),
  ('O=C(CCCn1c(=O)c2sc3ccccc3c2n2nnc(-c3ccccc3)c12)NCCc1cnc[nH]1', '%', -44.1),
  ('Nc1c(C(=O)c2ccc(F)cc2)sc2nc3c(cc12)CCCC3', '%', 90.3),
  ('Cc1cc(C(=O)CSc2nc3ccccc3c(=O)[nH]2)c(C)n1C', '%', 113),
  ('CC(=O)Oc1cccc(OC(C)=O)c1OC(C)=O', '%', 110),
  ('CCC(=O)Nc1ccccc1C#C/C=C\C#Cc1ccccc1SC', '%', 28.6),
  ('Cc1cccc(NC(=O)c2sc3nc4c(cc3c2N)CCC4)c1C', '%', 10.8),
  ('CCn1c(=O)c2c(=O)c3c4c(oc3oc2c2ccccc21)C(=O)c1ccccc1C4=O', '%', 83.7),
  ('COc1cccc(C2CC(=O)Nc3c2c(C)nn3-c2nc3ccccc3[nH]2)c1OC (centres undefined)', '%', 50.2),
  ('COc1ccc(NC(=O)CSc2nc3ccc(Cl)cc3c(=O)n2-c2ccccc2C(F)(F)F)c(OC)c1OC', '%', 82.4),
  ('CC1=CNNc2c3ncnc-3ncn21', '%', 108),
  ('CCCCCCCCCCC/C=C\C[C@H](O)C/C=C1/C(=O)C=C[C@@H]1C/C=C\CCCC(=O)OC', '%', -31.4),
  ('COc1ccc(-n2cnc3c(sc4ncc(Cl)cc43)c2=O)cc1', '%', 49.1),
  ('CC(Cc1nnc(SCC(=O)Nc2ccc(I)cc2)n1N)c1ccccc1 (centres undefined)', '%', 96.1),
  ('CN=S(=O)(NC(=O)c1ccc(Cl)cc1Cl)c1ccc(Br)s1 (centres undefined)', '%', 98.6),
  ('O=S(=O)(NCCCNc1cc(-c2cn(-c3ccccc3)nc2-c2cccc(O)c2)ccn1)c1cccc2ccccc12', '%', 18),
  ('COc1cccc(-c2nc3sccn3c2-c2ccnc(NCCCNS(=O)(=O)c3ccc(F)cc3)n2)c1', '%', 40.3),
  ('C=CCn1c(C)nc2ccc(Nc3nc(Nc4ccc(F)cc4)nc4ccccc34)cc21', '%', 63.4),
  ('O=C1CCCCN1CCCCC#Cc1ccccc1C#Cc1ccccn1', '%', 115),
  ('COc1cc(NC(=O)CSc2nc3ccc(C)cc3c(=O)n2-c2ccccc2)cc(OC)c1OC', '%', 101),
  ('O=C(Nc1ccc(OCc2nnc(-c3ccc(Cl)cc3)o2)c(F)c1)Nc1ccc(Cl)c(Cl)c1', '%', 29.2),
  ('CN(C)c1ccc(-c2ccc(-c3ccc(C(=N)N)cn3)o2)cc1', '%', -86.8),
  ('O=[N+]([O-])c1c(S(=O)(=O)O)cc2cc(S(=O)(=O)O)ccc2c1[N+](=O)[O-]', '%', 105),
  ('C/C(=C\c1csc(C)n1)[C@@H]1C[C@@H]2O[C@]2(C)CCC[C@H](C)[C@H](O)[C@@H](C)C(=O)C(C)(C)[C@@H](O)CC(=O)N1', '%', -85.5),
  ('Cc1ccc2c(c1)ncn2-c1ncnc2c1CC(C)c1ccccc1N2C (centres undefined)', '%', 3.26),
  ('Nc1c(C(=O)Nc2ccccc2)sc2nc3c(cc12)CN(Cc1ccccc1)CC3', '%', 32.8),
  ('CCCCOc1nc2c(C)cccc2cc1C1CNC(=O)c2ccccc2N1 (centres undefined)', '%', 56.2);
